Give measured MIC for each item. Keep answers brief.
- System: Salmonella enterica
- protocol: Antibacterial activity against Salmonella enterica ATCC 10708 after 16 to 48 hrs
- Assay type: functional

Reference set (2 entries):
CC1(C)S[C@@H]2[C@H](NC(=O)[C@H](N)c3ccccc3)C(=O)N2[C@H]1C(=O)O [AMPICILLIN] | 25 µM
C/C=C/C=C/[C@H]1C[C@H](O)CCN1 | > 24 µM

Attention now turns to another entry.
*Q* Given the entry COC(=O)c1cc2cc(CCc3cc4c(o3)C(=O)c3c(O)c(OC)cc(OC)c3C4=O)c(O)c(O)c2c(=O)o1 , report its measured MIC.
*A* > 24 µM
